assay: NCI Yeast Anticancer Drug Screen. Data for the bub3 strain (AID 167); settings: S. cerevisiae bub3 mutant strain, active compounds read high; at 50.0 µM unless noted
The panel holds about 79,000 compounds, 15% with a hit somewhere; the sample as a whole holds those more often.
growth inhibition values by entry
Please respond with the number in % and leave the unit unwritten.

For orientation, consider the following solved cases.
INSERT INTO results (compound, parameter, assay_result) VALUES
  ('N#Cc1ccc(-c2ccc(C#N)cc2)cc1', 'growth inhibition', -20.1),
  ('OC(Cc1ccc2ccccc2n1)(C(F)(F)F)C(F)(F)F', 'growth inhibition', -29.9),
  ('NC1=NC(=O)/C(=C/c2ccccc2[N+](=O)[O-])C(N)=N1', 'growth inhibition', -5.6),
  ('NC(N)=NS(=O)(=O)c1ccc(NCc2c3ccccc3nc3ccccc23)cc1', 'growth inhibition', 46.5),
  ('C[C@H]1CC[C@@H]2O[C@@]23C(=O)OC2OC(C)(C)[C@@H]([C@H]2O)[C@]13C', 'growth inhibition', -5.2),
  ('C/C(=N\NC(=O)Nc1ccc(N=Nc2ccccc2)cc1)c1ccncc1', 'growth inhibition', 14.3),
  ('Cc1cccc(CO)c1NC(=O)NCCCl', 'growth inhibition', -17.9),
  ('C#CC(=O)CCC', 'growth inhibition', 32.5),
  ('C=C1N(C=O)C(C)(C)N(O)C1(C)C', 'growth inhibition', 12.2),
  ('O=C1CC2c3ccccc3CCN2C2=C1CCC2 (configuration not stated)', 'growth inhibition', 0.5);

# growth inhibition of `COc1ccc(C)cc1NC(=O)OCCCl` = 11.1

Documented growth inhibition of CC(C)OC(=O)CC1NS(=O)(=O)c2ccccc21 (configuration not stated) : -16.6

---

Experiment: NCI Yeast Anticancer Drug Screen. Data for the mlh1 rad18 strain (AID 175)
Conditions: S. cerevisiae mlh1 rad18 strain growth inhibition, active compounds read high; at 50.0 µM unless noted
Experimental: Growth inhibition of yeast strains with defined genetic alterations is measured as a screen for potential anti-cancer activity. Selected strains with alterations in DNA damage repair or cell cycle control were exposed to compounds and growth inhibition was measured relative to vehicle treated controls. The strain used in this assay is mlh1 rad18
The panel holds about 79,000 compounds, 15% with a hit somewhere; the sample as a whole holds those more often.
PARAMETER: growth inhibition (%)
Dear colleague, please return just the value in %, with no unit written.

INSERT INTO assay_data (compound, assay_result) VALUES
  ('CCOC(=O)c1cc2c(-c3ccccc3)c(-c3ccccc3)c(-c3ccccc3)c(-c3ccccc3)n2n1', -0.4),
  ('OC(Cc1ccc2ccccc2n1)(C(F)(F)F)C(F)(F)F', -21.8),
  ('C=C1C(=O)O[C@@H]2O[C@@]3(C)CC[C@H]4[C@H](C)CC[C@@H]1[C@@]24O3', 40.5);

// `CCOC(=O)c1c(C)[nH]c(C(=O)CCN(C)C)c1C` : growth inhibition value = 0.65

The recorded growth inhibition for entry CC(Cl)(c1ccccc1)C1OCCO1 (stereo not drawn) equals -1.5

The compound listed as CCOC(=O)C(Cc1ccccc1)NC(=O)c1ccc(N=NN(C)C)cc1 (stereo not drawn) shows growth inhibition equal to -29.6

// growth inhibition value for COc1cccc(C2SCC(=O)N2c2ccc(-n3c(-c4ccccc4)nc4ccccc4c3=O)cc2)c1OC (stereo not drawn) : 26.9

# growth inhibition (compound: CCCC(=O)Nc1ccc(C2=NNC(=O)C3CC23)cc1 (stereo not drawn) ) is 36.5

growth inhibition for C=C1CC(CCCC2CC(=C)C(=O)O2)OC1=O (stereo not drawn) is 6.15

The recorded growth inhibition for entry C[C@@]1(O)C2CC3CC1(c1ccccc1)CC(/C3=N/O)/C2=N\O (stereo partly drawn) equals 8.3

Per the record, `Cc1ccc2ccccc2c1CN(C)C` has growth inhibition of -12.7

Briefly, growth inhibition measured for COc1ccc2c(c1)CCN1CCCc3ccccc3C21 (stereo not drawn) : -5.75

Record summary for CC1Cn2c(Cc3ccccc3)nnc2S1 (stereo not drawn) : reported growth inhibition = -4.75
